These entries and their values trace back to patent US20250195685A1.

For each record, write down the corresponding pKd.
- tested target: T1, human CD8αα homodimer, recombinant protein (Acro Biosystems) (human, UniProt P01732 22-182)
- T1 construct: also called CD8αα antigen; biotinylated CD8α recombinant protein (CDA-H82E3)
- T1 sequence (P01732 22-182 limits assumed): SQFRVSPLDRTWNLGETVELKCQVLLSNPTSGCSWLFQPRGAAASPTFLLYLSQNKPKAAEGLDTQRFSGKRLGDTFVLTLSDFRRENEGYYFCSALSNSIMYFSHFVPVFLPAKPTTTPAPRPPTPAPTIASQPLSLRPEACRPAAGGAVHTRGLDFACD
- experimental details: BLI kinetic assay, engineered F(ab') fragment
One number for each entry, as −log10 of the molar value.

Here is how some binders turned out for pKd.
INSERT INTO measurements (binder, quantity_kind, reading) VALUES
  ('CBD1033.37 disulfide-engineered F(ab'') analog (IgG1-derived) (Fab, V domains shown, Engineered CH1-F174C / CK-S162C interchain disulfide; native disulfide removed; also called .37 design) VH: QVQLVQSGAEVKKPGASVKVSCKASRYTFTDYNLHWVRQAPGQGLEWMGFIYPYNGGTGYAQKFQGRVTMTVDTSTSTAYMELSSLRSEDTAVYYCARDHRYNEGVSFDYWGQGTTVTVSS VL: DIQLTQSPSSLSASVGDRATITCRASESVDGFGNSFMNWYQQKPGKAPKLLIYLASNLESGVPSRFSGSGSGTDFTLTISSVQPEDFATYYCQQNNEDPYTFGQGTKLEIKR', 'pKd', 8.40),
  ('CBD1033.44 disulfide-engineered F(ab'') analog (IgG1, truncated T238) (Fab, V domains shown, also called .44 design) VH: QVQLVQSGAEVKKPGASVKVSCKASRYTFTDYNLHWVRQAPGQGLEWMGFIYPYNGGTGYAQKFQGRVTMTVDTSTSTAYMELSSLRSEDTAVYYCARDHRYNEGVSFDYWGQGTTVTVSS VL: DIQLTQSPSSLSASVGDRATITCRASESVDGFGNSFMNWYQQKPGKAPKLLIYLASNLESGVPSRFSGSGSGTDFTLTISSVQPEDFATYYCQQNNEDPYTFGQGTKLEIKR', 'pKd', 8.14),
  ('CBD1033.42 disulfide-engineered F(ab'') analog (IgG1, truncated P240) (Fab, V domains shown, also called .42 design) VH: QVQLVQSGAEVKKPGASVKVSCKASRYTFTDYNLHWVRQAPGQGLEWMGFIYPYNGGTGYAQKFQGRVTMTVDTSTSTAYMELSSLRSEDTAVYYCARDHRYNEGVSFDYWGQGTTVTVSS VL: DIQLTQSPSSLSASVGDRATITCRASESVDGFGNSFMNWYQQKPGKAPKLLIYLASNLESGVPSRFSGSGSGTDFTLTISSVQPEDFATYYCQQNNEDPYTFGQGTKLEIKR', 'pKd', 8.29);

QUERY: What value of measured pKd is listed for CBD1033.45 disulfide-engineered F(ab') analog (IgG1, truncated T238, C233S) (Fab, V domains shown, also called .45 design) VH: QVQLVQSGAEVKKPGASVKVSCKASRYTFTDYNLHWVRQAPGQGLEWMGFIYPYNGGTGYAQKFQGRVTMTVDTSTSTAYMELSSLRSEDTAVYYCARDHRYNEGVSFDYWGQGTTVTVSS VL: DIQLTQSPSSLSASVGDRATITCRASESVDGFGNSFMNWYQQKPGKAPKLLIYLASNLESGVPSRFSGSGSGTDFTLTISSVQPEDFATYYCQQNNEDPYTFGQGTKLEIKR ?
RESULT: 8.04
